test: protein stability index of a GFP-peptide fusion (GPS, HEK-293T) (PSI 1-6); higher = more stable; settings: treatment: MLN4924 1 uM, 8 h; c terminus: a fixed tail appended;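 further: 24-mer peptide tiles fused after GFP, lentivirally expressed, FACS-sorted into six equal bins by GFP/DsRed ratio, decoded by Illumina sequencing, PSI is the read-weighted mean bin number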
Give measured protein stability index for each item. Keep answers brief.
Lab note: jot down the number only; don't add units.

The recorded protein stability index for entry NTELEVKIRDWYQRQAPGPARDYS [KRT17] equals 3.48

The recorded protein stability index for entry NGNRRRRKLRKTVNGDGSRENGNN [PHTF1] equals 5.12

The recorded protein stability index for entry TSYRLQGLKPNSLYYFRLAARSPQ [PTPRD] equals 2.42

The recorded protein stability index for entry IYTNRYETNEEDKTLQEIYRKYRK [FBXO39] equals 3.58

The recorded protein stability index for entry ISRLEQCGINANDVKKLEEAGFHT [RAD51] equals 3.9

The recorded protein stability index for entry KMSLYSEADSGYGSYGGFASAPTT [TRIM9] equals 3.18

The recorded protein stability index for entry YNIKLKWTNQQKLYSRTGDIVEFV [CFHR2] equals 2.46

The recorded protein stability index for entry HSGDLGQLDGLGFLYVTGHIKEIL [ACSBG2] equals 2.19

The recorded protein stability index for entry MGKRYFCDYCDRSFQDNLHNRKKH [ZMAT5] equals 3.42

The recorded protein stability index for entry ERTWPPPAMSPYWRTWMTITQSWQ [C22orf15] equals 1.94

The recorded protein stability index for entry RGKIHAFRGQILGFWEEERPFWEE [CCDC70] equals 2.47

The recorded protein stability index for entry TPLDAFRMTSAAHYYPKLMSIMGN [GFOD1] equals 2.06

The recorded protein stability index for entry KLPNDSRVERRFHFSQSLTVIHDF [FAF2] equals 2.26

The recorded protein stability index for entry DKLEYLDEKQRDPRIEASKVLLCH [NET1] equals 4.08

The recorded protein stability index for entry FSRAPVSALPLAPNHLGGGAVVLG [STX5] equals 2.98

The recorded protein stability index for entry STLLPLAPSNSTSLNSTFGSTNLT [NFE2L1] equals 3.86

The recorded protein stability index for entry RPIPTPVGSVHVDSGASAITRESH [CSNK1G1] equals 4.9

The recorded protein stability index for entry QAPPVPGPPPGAPHTPQTPGQGGP [NR2F2] equals 5.05

The recorded protein stability index for entry LLTWTEPPVRPAGYLLSFHTPGGQ [TNXB] equals 2.64

The recorded protein stability index for entry DLLPTFRHTLQKLTCEFNNNHESL [FBXO39] equals 2.35

The recorded protein stability index for entry EVLVKSNNLTDRIVVIPGKVEEVS [CARM1] equals 3.8

The recorded protein stability index for entry SFSLVKLVLRRQLKNKCCPPPCKF [C22orf31] equals 2.35

The recorded protein stability index for entry NSDDSYTCECLEGFRLAEDGKRCR [MATN2] equals 4.12

The recorded protein stability index for entry ELDPEVEGTKPSATEMIWAVLAAF [GOLPH3L] equals 2.37

The recorded protein stability index for entry SIYDNVPGSILYSSSGDLADLENE [DLC1] equals 4.75

The recorded protein stability index for entry SLHHTSECTQMDHLGCMHYTVRAP [ALDH8A1] equals 3.06

The recorded protein stability index for entry LEERLQLQFEAEMARLQEEHGDQL [MTUS2] equals 5.13

The recorded protein stability index for entry VRSGAWHFSFNVKFYPPDPAQLSE [EPB41L3] equals 2.53

The recorded protein stability index for entry PDAPDHTSETSHSPLYADPYTPPA [PLEKHN1] equals 5.01

The recorded protein stability index for entry EDEDDDSADMDESDEDDEEERRRR [FBXO3] equals 5.69

The recorded protein stability index for entry HFMVLSKSGPGDGFFSSAFQARLS [POMT2] equals 2.06

The recorded protein stability index for entry QKLLEQTQIIGEQNARLAELERKL [FBXO28] equals 4.24

The recorded protein stability index for entry NIMTQNVERILARGENLEHLRNKT [VAMP8] equals 3.93

The recorded protein stability index for entry LMKHQTNISELKRTFLETSTDTAV [EPB41L3] equals 3.92

The recorded protein stability index for entry KMAAVSKASGRFGLLQGTSAETSG [SEPHS2] equals 3.88

The recorded protein stability index for entry LPACEFEMGGSEGIVESIQIMKEG [NETO1] equals 4.74

The recorded protein stability index for entry YYHRRNEMTTTDDLDFKHHNYKEM [CPXM2] equals 3.35

The recorded protein stability index for entry LTRFLSRVIKCDPDCLRACQEQIE [CCND1] equals 2.56

The recorded protein stability index for entry DEEQQVLLSRLEEEEQDILQRLRE [TRIM39] equals 5.28

The recorded protein stability index for entry SSNRIRHLRTHTGERPYKCSECGE [ZNF263] equals 4.44

The recorded protein stability index for entry YYNVVLLRYQFSRPGPQSVPLQLS [FCHO1] equals 2.91

The recorded protein stability index for entry CLTLTPRPATEAELLTCHSAEYVG [HDAC6] equals 3.43

The recorded protein stability index for entry MVLLIMKLDQLDQDIENALSTSSS [DLC1] equals 2.49

The recorded protein stability index for entry LLRSPPPPSARHRAHPPQRPASSG [KCNA3] equals 4.62

The recorded protein stability index for entry TYRIENYTPDLPRADVDHAIEKAF [MMP1] equals 3.39

The recorded protein stability index for entry RLALRQRLKCRSFKWYLENVYPEM [GALNT9] equals 2.35

The recorded protein stability index for entry ASAPTYPSLYSSYHQGCLVNPTGN [NANOGP8] equals 3.44

The recorded protein stability index for entry LLISSCDWMAAMFGGPFVESSTRE [RHOBTB2] equals 2.37
